assay remarks: Noncompartmental pharmacokinetic parameters (Cmax, Tmax, AUC, Racc) in QD and BID cohorts of Form B
Format: in vivo, human
cond: human, plasma, oral, 500 mg, Cohort 4, 500 mg QD of Form B, Day 1; read-out: Cmax, Median
outcome measure: Cmax (ng/mL)

[
  {
    "chem smiles": "CC(C)N1CCN(c2ccc(Nc3ncc4cc5n(c4n3)C3(CCCCC3)CNC5=O)nc2)CC1",
    "unit symbol": "ng/mL",
    "measured result": 49.6
  }
]

----------
assay remarks: Noncompartmental pharmacokinetic parameters (Cmax, Tmax, AUC, Racc) in QD and BID cohorts of Form B
Assay type: in vivo, human
cond: human, plasma, oral, 200 mg, Compound III; 200 mg QD of Form B; Cohort 1; Day 29; read-out: Tmax (Mean)

[
  {
    "molecule": "O=C1NCC2(CCCCC2)n2c1cc1cnc(Nc3ccc(N4CCNCC4)cn3)nc12 [Compound III]",
    "Tmax / h": 4.2
  }
]

----------
assay remarks: Pharmacokinetics of Compound I in healthy volunteers after a single dose of Form B of Compound II
Format: in vivo, human
cond: human, plasma, oral, single 400 mg dose of Form B of Compound II, read-out: Vz/F
outcome measure: Vd/F (L)

[
  {
    "chem smiles": "CC(C)N1CCN(c2ccc(Nc3ncc4cc5n(c4n3)C3(CCCCC3)CNC5=O)nc2)CC1",
    "unit symbol": "L",
    "measured result": 19900
  }
]

----------
assay remarks: Plasma concentration versus time of Compound I and metabolite Compound III in patients dosed QD or BID with Form B of Compound II plus fulvestrant
Format: in vivo, human
cond: human, plasma, oral, 650 mg, 650 mg QD of Form B, Day 1, 2.0 h, Median; read-out: Compound III Concentration

[
  {
    "compound": "O=C1NCC2(CCCCC2)n2c1cc1cnc(Nc3ccc(N4CCNCC4)cn3)nc12 [Compound III]",
    "concentration at 2 h / ng/mL": 3.81
  }
]

----------
assay remarks: Noncompartmental pharmacokinetic parameters (Cmax, Tmax, AUC, Racc) in QD and BID cohorts of Form B
Format: in vivo, human
cond: human, plasma, oral, 150 mg, Compound I; 150 mg BID of Form B; Cohort 7; Day 29; read-out: Cmax (Mean)

[
  {
    "compound": "CC(C)N1CCN(c2ccc(Nc3ncc4cc5n(c4n3)C3(CCCCC3)CNC5=O)nc2)CC1 [Compound I]",
    "Cmax": "50.2 ng/mL"
  }
]

----------
assay remarks: Plasma concentration versus time of Compound I and metabolite Compound III in patients dosed QD or BID with Form B of Compound II plus fulvestrant
Assay type: in vivo, human
cond: human, plasma, oral, 500 mg, Cohort 4, 500 mg QD of Form B, Day 29, 8.0 h; read-out: Compound III Concentration, Min
Description: Patients were enrolled into 1 of 2 parallel, independently operating, dose-escalation dosing cohorts with Form B of Compound II administered continuously either once daily (QD) or twice daily (BID) with food with fixed-dose fulvestrant (intramuscularly every 14 days for the first three injections and then every 28 days). Pre- or perimenopausal patients also received goserelin for the duration of study treatment. […]

[
  {
    "compound": "O=C1NCC2(CCCCC2)n2c1cc1cnc(Nc3ccc(N4CCNCC4)cn3)nc12 [Compound III]",
    "concentration at 8 h [ng/mL]": 3.3
  }
]
